target: Intestinal-type alkaline phosphatase (Homo sapiens) (UniProt P09923); assay: potency of intestinal alkaline phosphatase inhibition – biochemical, luminescence, SAR follow-up (AID 493137); conditions: purified human IAP, CDP-Star luminescence, 30 min
Sequence (P09923 whole entry, looked up): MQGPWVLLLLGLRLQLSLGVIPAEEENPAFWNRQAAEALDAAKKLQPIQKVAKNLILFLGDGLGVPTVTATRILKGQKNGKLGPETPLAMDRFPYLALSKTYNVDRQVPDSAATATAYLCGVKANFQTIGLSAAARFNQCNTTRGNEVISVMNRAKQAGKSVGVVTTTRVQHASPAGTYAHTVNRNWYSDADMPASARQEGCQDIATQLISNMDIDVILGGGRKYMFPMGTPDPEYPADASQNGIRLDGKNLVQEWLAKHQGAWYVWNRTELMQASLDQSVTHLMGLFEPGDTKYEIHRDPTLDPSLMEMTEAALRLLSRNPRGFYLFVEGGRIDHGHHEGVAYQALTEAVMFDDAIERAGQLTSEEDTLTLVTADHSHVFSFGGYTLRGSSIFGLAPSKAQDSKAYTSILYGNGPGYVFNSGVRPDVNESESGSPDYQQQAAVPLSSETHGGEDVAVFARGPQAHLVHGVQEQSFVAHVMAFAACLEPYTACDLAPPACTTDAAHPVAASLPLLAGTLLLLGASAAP
The source made the active and inactive calls.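 The calls were made as follows: active = compounds whose mean IC50 is under 100 micromolar in the phosphatase inhibition dose series; inactive = the rest.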
Possible outcomes: 1 (yes) for active, 0 (no) for inactive

> print(dat)
                                    compound    label
 1        Oc1ccc(-c2csc(Nc3ccc(F)cc3)n2)cc1O   0 (no)
 2  O=S(=O)(c1ccc(NC(=S)N/N=C/c2ccc(O)c(O)c2O)cc1)N1CCOCC1   0 (no)
 3    COc1ccc(-c2csc(Nc3cccc4ccccc34)n2)cc1F   0 (no)
 4      CC(=NNC(=S)Nc1ccccc1)c1ccc2c(c1)OCO2   0 (no)
 5   Cc1ccc2nc(NNC(=O)c3ccc4c(c3)OCCO4)sc2c1   0 (no)
 6        COc1cccc(Nc2nc(-c3ccc(O)cc3)cs2)c1   0 (no)
 7  O=[N+]([O-])c1ccccc1NC(=S)NN=Cc1ccc(O)c(O)c1  1 (yes)
 8      Oc1ccc(Nc2nc(-c3ccc(O)c(O)c3)cs2)cc1  1 (yes)
 9  O=[N+]([O-])c1ccc(NC(=S)NCCC(c2ccccc2)c2ccccc2)cc1   0 (no)
10  COC(=O)/C=C1/S/C(=N/NC(=O)c2ccccc2)NC1=O   0 (no)
11  FC(F)(F)c1cccc(NC(=S)NCCC(c2ccccc2)c2ccccc2)c1   0 (no)
12  Cc1ccc(-c2ccc(/C=N/N=C3\NC(=O)C(CC(=O)O)S3)o2)c([N+](=O)[O-])c1 (stereo not drawn)   0 (no)
13  COc1ccc(/C=N/N=C2/NC(=O)C(CC(=O)O)S2)cc1OC (stereo not drawn)   0 (no)
14          CCOc1cc(C=NNC(=S)NC2CCCCC2)ccc1O   0 (no)
15  NS(=O)(=O)c1ccc(Nc2nc(-c3ccc(O)c(O)c3)cs2)cc1  1 (yes)
16       COc1ccc(C(=O)NNC(=S)NC2CCCCC2)cc1OC   0 (no)
17   Cc1cccc(NC(=S)NNC(=O)c2ccc3c(c2)OCO3)c1   0 (no)
18  CN(C)S(=O)(=O)c1cccc(NC(=S)NN=Cc2ccc(O)c(O)c2O)c1   0 (no)
19  COc1cc(C(=O)NNC(=S)Nc2ccc(S(N)(=O)=O)cc2)cc(OC)c1OC   0 (no)
20    CCOc1ccc(Nc2nc(-c3ccc(O)c(O)c3)cs2)cc1   0 (no)
21  Cc1ccc2sc(NNC(=O)c3ccc4c(c3)OCCO4)nc2c1C   0 (no)
22  COc1cc(/C=N/N=C2\NC(=O)C(CC(=O)O)S2)cc(OC)c1OC (stereo not drawn)   0 (no)
23  COC(=O)/C=C1/S/C(=N/NC(=O)c2ccc(Cl)cc2Cl)NC1=O   0 (no)
24  COc1ccc(C=NN=C2SC(CC(=O)O)C(=O)N2c2ccc(O)cc2)cc1 (stereo not drawn)   0 (no)
25       Cc1ccc(Nc2nc(-c3ccc(O)cc3O)cs2)cc1F   0 (no)
26  O=C(O)CC1S/C(=N/N=C/c2ccco2)NC1=O (stereo not drawn)   0 (no)
27  O=[N+]([O-])c1ccccc1NC(=S)N/N=C/c1ccc(O)c(O)c1O   0 (no)
28  COc1cc(C=NN=C2SC(CC(=O)O)C(=O)N2c2ccc(O)cc2)ccc1O (stereo not drawn)   0 (no)
29        Cc1ccc(Nc2nc(-c3ccc(O)cc3O)cs2)cc1   0 (no)
30      Cc1cccc(Nc2nc(-c3ccc(O)c(O)c3)cs2)c1   0 (no)
31  COC(=O)/C=C1\SC(N=Nc2c(O)[nH]c3ccccc23)=NC1=O   0 (no)
32     Cc1ccc(C)c(Nc2nc(-c3ccc(O)cc3O)cs2)c1   0 (no)
33  COC(=O)/C=C1/S/C(=N/NC(=O)c2ccc(OC)cc2)NC1=O   0 (no)

---

biological target: Intestinal-type alkaline phosphatase (Homo sapiens) (UniProt P09923); assay: potency of intestinal alkaline phosphatase inhibition – biochemical, luminescence, SAR follow-up (AID 493137); settings: purified human IAP, CDP-Star luminescence, 30 min
The source made the active and inactive calls.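 The calls were made as follows: active = compounds whose mean IC50 is under 100 micromolar in the phosphatase inhibition dose series; inactive = the rest.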
Outcomes: 1 for active, -1 for inactive

> print(dat)
                                    molecule  label
 1  COc1cc(C=NNC(=S)Nc2cccc(S(=O)(=O)N(C)C)c2)cc(OC)c1O     -1
 2    Cc1ccc(Cl)cc1Nc1nc(-c2ccc(O)c(O)c2)cs1      1
 3  COc1cc([N+](=O)[O-])ccc1NC(=S)NNC(=O)c1ccc2c(c1)OCO2     -1
 4  CCN(CC)S(=O)(=O)c1ccc(-c2csc(=Nc3cccc4ccccc34)n2C)cc1     -1
 5  COc1cc(C=NNC(=S)Nc2cccc(S(=O)(=O)N(C)C)c2)ccc1O     -1
 6  COc1ccc(C=NNC(=S)Nc2ccccc2[N+](=O)[O-])cc1O     -1
 7  COC(=O)/C=C1/S/C(=N/N=Cc2ccc(N(C)C)cc2)NC1=O     -1
 8  COC(=O)/C=C1\S/C(=N/N=C/c2ccc(Cl)cc2)NC1=O     -1
 9  O=S(=O)(c1ccc(NC(=S)N/N=C/c2ccc(O)c(O)c2)cc1)N1CCOCC1     -1
10   COc1cc(C=NNC(=S)Nc2cccc(C(=O)O)c2)ccc1O     -1
11         Oc1ccc(-c2csc(Nc3ccccc3)n2)c(O)c1     -1
12      Cc1cccc(NC(=S)NN=Cc2ccc3c(c2)OCO3)c1     -1
13     Cc1ccc(Nc2nc(-c3ccc(O)c(O)c3)cs2)cc1F     -1
14   Cc1cccc(C)c1NC(=S)N/N=C/c1ccc(O)c(O)c1O     -1
15  COc1cc(/C=N/N=C2/SCC(=O)N2c2ccc(O)cc2)ccc1O     -1
16  S=C(NCCC(c1ccccc1)c1ccccc1)Nc1ccc(Cl)cc1Cl     -1
17  Cc1cc(=O)oc2cc(NC(=S)NCCC(c3ccccc3)c3ccccc3)ccc12     -1
18  CCOc1cc(/C=N/N=C2\NC(=O)C(CC(=O)O)S2)ccc1O (stereo not drawn)     -1
19     Cc1cc(C)cc(Nc2nc(-c3ccc(O)cc3O)cs2)c1     -1
20   COC(=O)C/C=N/N=C1\NC(=O)/C(=C/C(=O)O)S1     -1
21  Cc1ccc(Nc2nc(-c3ccc(O)c(C(N)=O)c3)cs2)cc1     -1
22  COC(=O)/C=C1/S/C(=N/NC(=O)c2ccccc2C)NC1=O     -1
23    COC(=O)/C=C1\S/C(=N/N=C/CC(=O)OC)NC1=O     -1
